The reported measurements were obtained from patent US20070086998A1.

- target-or-test-system: T1, HLA-DR on PRIESS cells (DRA*0101/DRB1*0401) (human, UniProt P01903 26-254; P01911 30-266)
- T1 MHC II alpha: not shown
- T1 MHC II beta: not shown
- test-summary: cell-based or functional assay
// NB: equality with 30 nM counts as label 0; only EC50 of cell killing for bivalent agent; PRIESS; Fab cross-linked with anti-FLAG M2 strictly below is label 1

Consider the binder MS-GPC-8-6-2 (Fab) (Fab, V domains shown) VH: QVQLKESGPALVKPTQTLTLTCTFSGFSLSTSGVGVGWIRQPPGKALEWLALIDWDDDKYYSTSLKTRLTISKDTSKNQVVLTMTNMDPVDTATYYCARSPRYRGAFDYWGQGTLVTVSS VL: DIVLTQPPSVSGAPGQRVTISCSGSESNIGSNYVHWYQQLPGTAPKLLIYDNNQRPSGVPDRFSGSKSGTSASLAITGLQSEDEADYYCQSYDYDHYVFGGGTKLTVLG . Is its EC50 of cell killing for bivalent agent; PRIESS; Fab cross-linked with anti-FLAG M2 strictly less than 30 nM?
label 1

Follow-up item: MS-GPC-1-Fab (Fab, V domains shown) VH: QVQLKESGPALVKPTQTLTLTCTFSGFSLSTSGVGVGWIRQPPGKALEWLALIDWDDDKYYSTSLKTRLTISKDTSKNQVVLTMTNMDPVDTATYYCARQYGHRGGFDHWGQGTLVTVSS VL: DIVLTQPPSVSGAPGQRVTISCSGSSSNIGSNYVSWYQQLPGTAPKLLIYDNNQRPSGVPDRFSGSKSGTSASLAITGLQSEDEADYYCQSYDFNESVFGGGTKLTVLG
label 0

Follow-up item: MS-GPC-8-27-41 (Fab) (Fab, V domains shown) VH: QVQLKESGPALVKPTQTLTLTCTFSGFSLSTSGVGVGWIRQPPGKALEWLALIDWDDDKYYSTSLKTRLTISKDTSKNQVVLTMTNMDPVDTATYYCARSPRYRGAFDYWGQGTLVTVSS VL: DIVLTQPPSVSGAPGQRVTISCSGSESNIGNNYVQWYQQLPGTAPKLLIYDNNQRPSGVPDRFSGSKSGTSASLAITGLQSEDEADYYCQSYDMNVHVFGGGTKLTVLG
label 1

Follow-up item: MS-GPC-10-Fab (Fab, V domains shown) VH: QVQLKESGPALVKPTQTLTLTCTFSGFSLSTSGVGVGWIRQPPGKALEWLALIDWDDDKYYSTSLKTRLTISKDTSKNQVVLTMTNMDPVDTATYYCARQLHYRGGFDLWGQGTLVTVSS VL: DIVLTQPPSVSGAPGQRVTISCSGSSSNIGSNYVSWYQQLPGTAPKLLIYDNNQRPSGVPDRFSGSKSGTSASLAITGLQSEDEADYYCQSYDLTMGVFGGGTKLTVLG
label 0

Follow-up item: MS-GPC-8-Fab (Fab, V domains shown) VH: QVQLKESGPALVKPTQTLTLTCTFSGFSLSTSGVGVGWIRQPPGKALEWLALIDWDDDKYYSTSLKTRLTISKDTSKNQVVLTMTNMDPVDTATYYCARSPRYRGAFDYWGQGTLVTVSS VL: DIVLTQPPSVSGAPGQRVTISCSGSSSNIGSNYVSWYQQLPGTAPKLLIYDNNQRPSGVPDRFSGSKSGTSASLAITGLQSEDEADYYCQSYDMPQAVFGGGTKLTVLG
label 0

Follow-up item: MS-GPC-8-17 (Fab) (Fab, V domains shown) VH: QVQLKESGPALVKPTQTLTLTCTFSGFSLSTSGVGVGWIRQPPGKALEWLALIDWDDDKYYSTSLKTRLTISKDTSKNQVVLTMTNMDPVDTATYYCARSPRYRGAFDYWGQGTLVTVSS VL: DIVLTQPPSVSGAPGQRVTISCSGSSSNIGSNYVSWYQQLPGTAPKLLIYDNNQRPSGVPDRFSGSKSGTSASLAITGLQSEDEADYYCQSYDFSVYVFGGGTKLTVLG
label 1
